# Tested on: S. typhimurium/E. coli reverse mutation, colony counts
# Method description: Bacterial reverse mutation test (aka Ames test) summary data;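 also: His-minus Salmonella and trp-minus E. coli WP2 uvrA pKM101 with or without liver S9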
Records with an inconclusive call do not appear. Active and inactive are the calls of the source. No rule for the calls is given here.
Outcomes: active, inactive

molecule=O=[N+]([O-])C(Br)(Br)Br cat=active
molecule=Cc1ccccc1C(=O)O cat=inactive
molecule=O=C(O)c1ccc(S(=O)(=O)N(Cl)Cl)cc1 cat=active
molecule=C=CCO cat=inactive
molecule=N#C/C(N)=C(/N)C#N cat=inactive
molecule=Cc1cccc(O)c1C cat=inactive
molecule=BrC/C=C/CBr cat=active
molecule=c1ccc2n[nH]nc2c1 cat=active
molecule=CCCCOC(=O)c1ccccc1C(=O)OCc1ccccc1 cat=inactive
molecule=OC1CCCCC1 cat=inactive
molecule=Cc1occc(=O)c1O cat=active
molecule="CCCCCCCCCCCCOCC1CO1 (stereo not given)" cat=inactive
molecule=Nc1ccc2cc(S(=O)(=O)O)c(N=Nc3ccc(-c4ccc(N=Nc5c(S(=O)(=O)O)cc6cc(S(=O)(=O)O)cc(N)c6c5O)cc4)cc3)c(O)c2c1 cat=active
molecule=C=CCCC cat=inactive
molecule=CCN(N=O)C(N)=O cat=active

====

# Test system: S. typhimurium/E. coli reverse mutation, colony counts
# Method description: Bacterial reverse mutation test (aka Ames test) summary data;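 also: His-minus Salmonella and trp-minus E. coli WP2 uvrA pKM101 with or without liver S9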
# Description: The Ames test uses bacteria cultures to determine whether a substance causes mutations. Because there is a significant overlap between substances that are mutagens and those that are carcinogens, a quick and inexpensive mutagenicity test is useful as an initial screening for possible carcinogens. The Ames test relies on specific strains of S. typhimurium, namely: TA97, TA98, TA100, TA102, TA104, TA1535, TA1537, and TA1538. […]
Inconclusive results are not listed. Calls of active or inactive are those of the source. No rule for the calls is given here.
Observed property: outcome

molecule=N#Cc1ccccc1 tested_system="S. typhimurium/E. coli reverse mutation, colony counts" endpoint_value="inactive; negative"
molecule=ClC(Cl)C(Cl)(Cl)Cl tested_system="S. typhimurium/E. coli reverse mutation, colony counts" endpoint_value="inactive; negative"
molecule=S=[Se] tested_system="S. typhimurium/E. coli reverse mutation, colony counts" endpoint_value="active; positive"
molecule=CC(C)=CCC/C(C)=C/CC/C(C)=C/CC/C=C(\C)CC/C=C(\C)CCC=C(C)C tested_system="S. typhimurium/E. coli reverse mutation, colony counts" endpoint_value="inactive; negative"
molecule="CCCCC(CC)CO (stereo unspecified)" tested_system="S. typhimurium/E. coli reverse mutation, colony counts" endpoint_value="inactive; negative"
molecule=C[C@@H]1Cc2c(Cl)cc(C(=O)N[C@@H](Cc3ccccc3)C(=O)O)c(O)c2C(=O)O1 tested_system="S. typhimurium/E. coli reverse mutation, colony counts" endpoint_value="inactive; negative"
molecule="CCCNC(C)C(=O)Nc1ccccc1C (stereo unspecified)" tested_system="S. typhimurium/E. coli reverse mutation, colony counts" endpoint_value="inactive; negative"
molecule=Cc1ccccc1N tested_system="S. typhimurium/E. coli reverse mutation, colony counts" endpoint_value="active; positive"
molecule="O=C(OCC1CO1)C1CCCCC1C(=O)OCC1CO1 (stereo unspecified)" tested_system="S. typhimurium/E. coli reverse mutation, colony counts" endpoint_value="active; positive"
molecule=C=CCOC(=O)CC(C)C tested_system="S. typhimurium/E. coli reverse mutation, colony counts" endpoint_value="inactive; negative"
molecule=[Na+] tested_system="S. typhimurium/E. coli reverse mutation, colony counts" endpoint_value="inactive; negative"
molecule=C=CCCl tested_system="S. typhimurium/E. coli reverse mutation, colony counts" endpoint_value="active; positive"
molecule=Clc1nc2ccccc2nc1Cl tested_system="S. typhimurium/E. coli reverse mutation, colony counts" endpoint_value="inactive; negative"
molecule=O=S(=O)(O)c1ccccc1 tested_system="S. typhimurium/E. coli reverse mutation, colony counts" endpoint_value="inactive; negative"
molecule="CC1OC1C (stereo unspecified)" tested_system="S. typhimurium/E. coli reverse mutation, colony counts" endpoint_value="active; positive"

====

# System: S. typhimurium/E. coli reverse mutation, colony counts
# Method description: Bacterial reverse mutation test (aka Ames test) summary data;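 also: His-minus Salmonella and trp-minus E. coli WP2 uvrA pKM101 with or without liver S9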
Records with an inconclusive call do not appear. Activity calls are given as the source filed them. No rule for the calls is given here.
Outcomes: y = active, n = inactive

molecule="CC(Cl)CCl (stereo unspecified)" cat=y
molecule=CS(=O)(=O)OCCCCOS(C)(=O)=O cat=y
molecule=c1ccncc1 cat=n
molecule=Nc1cccc(S(=O)(=O)O)c1 cat=n
molecule=CCBr cat=y
molecule=O=C1C=CCCC1 cat=n
molecule=C=C(Cl)C(=O)OC cat=y
molecule="ClC1=C(Cl)C2(Cl)C3C(Cl)C(Cl)CC3C1(Cl)C2(Cl)Cl (stereo unspecified)" cat=n
molecule=CC(=O)c1ccccc1[N+](=O)[O-] cat=n
molecule=Nc1ccc(NCCO)c([N+](=O)[O-])c1 cat=y
molecule=ClNc1nc(NCl)nc(NCl)n1 cat=n
molecule=[Cl][In]([Cl])[Cl] cat=n
molecule=O=[N+]([O-])c1ccccc1Nc1ccccc1 cat=n
molecule=CN(C)CCN(Cc1ccsc1)c1ccccn1 cat=n
molecule=Oc1ccc(Cl)c(Cl)c1 cat=n
molecule=ClCc1cccnc1 cat=y

====

# System: S. typhimurium/E. coli reverse mutation, colony counts
# Method description: Bacterial reverse mutation test (aka Ames test) summary data;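 also: His-minus Salmonella and trp-minus E. coli WP2 uvrA pKM101 with or without liver S9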
Inconclusive results are not listed. The source made the active and inactive calls. The rule behind the calls is not given here.
Observed property: outcome

compound=Cc1ccc2ncccc2c1 observed_property=outcome endpoint_value="active; positive"
compound=C=CCC observed_property=outcome endpoint_value="inactive; negative"
compound=Cc1cc(C)cc(O)c1 observed_property=outcome endpoint_value="inactive; negative"
compound=CC(C)=CCl observed_property=outcome endpoint_value="active; positive"
compound=O=C(OCC(COC(=O)c1ccccc1)(COC(=O)c1ccccc1)COC(=O)c1ccccc1)c1ccccc1 observed_property=outcome endpoint_value="inactive; negative"
compound=Nc1ccn([C@H]2CC[C@@H](CO)O2)c(=O)n1 observed_property=outcome endpoint_value="active; weakly positive"
compound="CC(C)NCC(O)c1ccc(O)c(O)c1 (stereo not given)" observed_property=outcome endpoint_value="active; weakly positive"
compound=CCCCN observed_property=outcome endpoint_value="inactive; negative"
compound="CCCCC(CC)COP(=O)(OCC(CC)CCCC)OCC(CC)CCCC (stereo not given)" observed_property=outcome endpoint_value="inactive; negative"
compound=O[C@H]([C@H](O)[C@@H](O)CBr)[C@H](O)CBr observed_property=outcome endpoint_value="active; positive"
compound=Nc1cc([N+](=O)[O-])cc(Cl)c1O observed_property=outcome endpoint_value="active; positive"
compound=Cc1ccc(Nc2ccc(Nc3ccc(C)cc3S(=O)(=O)O)c3c2C(=O)c2ccccc2C3=O)c(S(=O)(=O)O)c1 observed_property=outcome endpoint_value="active; weakly positive"
compound=N#CCc1ccccc1[N+](=O)[O-] observed_property=outcome endpoint_value="active; positive"
compound=O=C=Nc1ccc(N=C=O)cc1 observed_property=outcome endpoint_value="inactive; negative"
compound=c1cc2c3c(cccc3c1)CC2 observed_property=outcome endpoint_value="inactive; negative"
compound=O=[N+]([O-])c1ccc(CCO)cc1 observed_property=outcome endpoint_value="active; positive"
compound=c1ccc2ncccc2c1 observed_property=outcome endpoint_value="active; positive"
compound=CSC(C)(C)C=NO observed_property=outcome endpoint_value="inactive; negative"
compound=C=CCc1ccc(O)c(OC)c1 observed_property=outcome endpoint_value="inactive; negative"
compound=C(=C\c1ccccc1)/c1ccccc1 observed_property=outcome endpoint_value="inactive; negative"
compound=COc1cc(-c2ccc(N=Nc3cc(S(=O)(=O)O)c4ccccc4c3O)c(OC)c2)ccc1N=Nc1cc(S(=O)(=O)O)c2ccccc2c1O observed_property=outcome endpoint_value="inactive; negative"
compound=CCOc1ccccc1C(N)=O observed_property=outcome endpoint_value="inactive; negative"
compound=NC(=S)Nc1ccccc1 observed_property=outcome endpoint_value="inactive; negative"
compound=C[C@H]1CCC[C@H](O)CCCCCc2cc(O)cc(O)c2C(=O)O1 observed_property=outcome endpoint_value="inactive; negative"
compound=Nc1nccs1 observed_property=outcome endpoint_value="active; positive"
compound=O=c1c(O)c(-c2ccc(O)c(O)c2)oc2cc(O)cc(O)c12 observed_property=outcome endpoint_value="active; positive"
compound=Nc1ccccc1O observed_property=outcome endpoint_value="active; positive"
compound=C=CCc1ccc2c(c1)OCO2 observed_property=outcome endpoint_value="inactive; negative"
compound="CC(C)(C)c1ccc(OCC2CO2)cc1 (stereo not given)" observed_property=outcome endpoint_value="active; positive"
compound=O=c1cc(-c2ccc(O)cc2)oc2cc(O)cc(O)c12 observed_property=outcome endpoint_value="inactive; negative"
compound=Cc1cc(-c2ccc(N=Nc3ccc4c(S(=O)(=O)O)cc(S(=O)(=O)O)c(N)c4c3O)c(C)c2)ccc1N=Nc1ccc2c(S(=O)(=O)O)cc(S(=O)(=O)O)c(N)c2c1O observed_property=outcome endpoint_value="active; positive"
compound=c1ccc2c(c1)c1cccc3ccc4cccc2c4c31 observed_property=outcome endpoint_value="active; positive"
compound=CC(C)(C)OOC(=O)c1ccccc1 observed_property=outcome endpoint_value="active; positive"
compound=CCCCCCCCCCCCCCCCCC[N+](C)(C)Cc1ccccc1 observed_property=outcome endpoint_value="inactive; negative"
compound=C=C observed_property=outcome endpoint_value="inactive; negative"
compound=CCOC(C)OCC observed_property=outcome endpoint_value="active; positive"
compound=COC(=O)NC(=S)Nc1ccccc1NC(=S)NC(=O)OC observed_property=outcome endpoint_value="active; positive"
compound=CCOCCOCCO observed_property=outcome endpoint_value="inactive; negative"
compound=Oc1cc2c(cc1O)[C@@H]1c3ccc(O)c(O)c3OC[C@]1(O)C2 observed_property=outcome endpoint_value="inactive; negative"
compound=Cc1ccc2cc3c(ccc4ccccc43)c3c2c1CC3 observed_property=outcome endpoint_value="active; positive"
compound="C=CC1CC=CCC1 (stereo not given)" observed_property=outcome endpoint_value="inactive; negative"
compound=NCCCCCCN observed_property=outcome endpoint_value="inactive; negative"
compound=c1ccc(N=Nc2ccccc2)cc1 observed_property=outcome endpoint_value="active; positive"
compound=CCCCC(=O)N(C)C observed_property=outcome endpoint_value="inactive; negative"
compound=CCC#N observed_property=outcome endpoint_value="inactive; negative"
compound=O=C(O)c1ccc(C(=O)O)cc1 observed_property=outcome endpoint_value="inactive; negative"
compound=Nc1ccc2cc(S(=O)(=O)O)c(N=Nc3ccc(-c4ccc(N=Nc5ccc(O)c(C(=O)O)c5)cc4)cc3)c(O)c2c1 observed_property=outcome endpoint_value="active; positive"
compound=O=C1c2ccccc2C(=O)c2ccccc21 observed_property=outcome endpoint_value="active; positive"
compound=COC(F)(F)C(Cl)Cl observed_property=outcome endpoint_value="inactive; negative"
compound="C1CCC2OC2C1 (stereo not given)" observed_property=outcome endpoint_value="active; positive"
compound=O.O=S(=O)([O-])[O-].[Mn+2] observed_property=outcome endpoint_value="inactive; negative"
compound=OC(c1ccc(Cl)cc1)(c1ccc(Cl)cc1)C(Cl)(Cl)Cl observed_property=outcome endpoint_value="inactive; negative"
compound=Cc1ccccc1C observed_property=outcome endpoint_value="inactive; negative"
compound=CCCCCCCCC observed_property=outcome endpoint_value="inactive; negative"
compound=COC(=O)c1ccccc1C(=O)OC observed_property=outcome endpoint_value="inactive; negative"
compound=O=Cc1ccc(Cl)c(Cl)c1 observed_property=outcome endpoint_value="inactive; negative"
compound=c1ccc2occc2c1 observed_property=outcome endpoint_value="inactive; negative"
compound=C1COC1 observed_property=outcome endpoint_value="active; positive"
compound="ClC1=C(Cl)C2(Cl)C3C(Cl)C=CC3C1(Cl)C2(Cl)Cl (stereo not given)" observed_property=outcome endpoint_value="inactive; negative"
compound="C1CCC2CCCCC2C1 (stereo not given)" observed_property=outcome endpoint_value="inactive; negative"

Entry source: PubChem BioAssay AID2202554
